system: Zymoseptoria tritici (SEPTTR-184); test: Cyp51 dsRNA tile (fragment) foliar application bioassay (Example 6); type: in vivo; settings: 3 days curative; rate 200 ppm; average of 2 trials
Disease Control (%) SEPTTR-184 3DC listing for selected molecules.
Provide the measurement as a number trailed by its unit.

Molecule	Test result
YFP: non-target dsRNA control (YFP, yellow fluorescent protein coding region) (nucleic acid, double-stranded RNA; synthesized partial coding region) TGTAGAAATCCTTCAGCTCGGGGCCGTACTTGGCGAAGCACTGGGCGCCGTAGGTCAGGGTGGTCACCAGGGTGCTCCAGGGCACGGGCACATCGCCGGTGGTGCAGATGAACTGGGCATCCACCTTGCCCACGCTGGCATCGCCGTAGCCCTTGCCGCGGATGCTGAAGGTGTGGCCATCCACATTGCCCTCCATCTCCACCACGTAGGGGATCTTGCCGTGGAACAGCAGGGCGCCGCTGGAGCCCAT	35%

Lookup result for MgCyp51-T4: dsRNA tile of Zymoseptoria tritici Cyp51, 178 bp, location 647-824 (nucleic acid, listed as Zymoseptoria tritici) AGGGCTTCGACTCGTCTTTCGCGGACCTCTACCACTACCTCGATATGGGATTCACACCGATCAACTTTATGCTTCCGTGGGCGCCCCTTCCCCAGAACCGACGCCGCGATTATGCGCAGAAGAAGATGTCCGAGACATACATGTCGATCATTCAGAAGAGACGAGAGTCCAAAACGGG ; measured Disease Control (%) SEPTTR-184 3DC: 75%

Item: MgCyp51-T13: dsRNA tile of Zymoseptoria tritici Cyp51, 119 bp, location 1517-1635 (nucleic acid, listed as Zymoseptoria tritici, long dsRNA tile, purified, chemistry not given here) ACAATGTGGATGGCAGCGACAACGTGGTGGGTACGGATTACAGCAGTTTGTTCAGCCGGCCGCTGTCGCCGGCAGTAGTAAAGTGGGAGAGGAGGGAGGAGAAGGAGGAGAAGAACTGA | Disease Control (%) SEPTTR-184 3DC: 59%

Hey, just so you know, these numbers are from patent US20180320179A1.
